target: Corticotropin-releasing factor receptor 2/Corticotropin-releasing factor-binding protein (Homo sapiens, UniProt P24387+Q13324); assay: activators of CRF receptor 2 with binding protein – uHTS hits, confirmation (AID 602473); format: functional; settings: read-out: EC50_Mean
Sequence (Q13324 whole entry): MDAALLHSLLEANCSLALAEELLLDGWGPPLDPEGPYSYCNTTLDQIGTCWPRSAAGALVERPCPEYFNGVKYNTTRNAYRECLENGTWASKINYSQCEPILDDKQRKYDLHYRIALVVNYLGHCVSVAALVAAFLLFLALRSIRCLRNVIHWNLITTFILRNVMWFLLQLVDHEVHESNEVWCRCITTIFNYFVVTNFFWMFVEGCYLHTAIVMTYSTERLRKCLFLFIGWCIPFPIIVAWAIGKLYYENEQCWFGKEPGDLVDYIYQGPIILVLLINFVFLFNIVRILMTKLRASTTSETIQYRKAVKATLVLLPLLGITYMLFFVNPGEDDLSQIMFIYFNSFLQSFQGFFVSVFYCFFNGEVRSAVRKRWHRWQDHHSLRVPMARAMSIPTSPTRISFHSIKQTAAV
Sequence (P24387 whole entry): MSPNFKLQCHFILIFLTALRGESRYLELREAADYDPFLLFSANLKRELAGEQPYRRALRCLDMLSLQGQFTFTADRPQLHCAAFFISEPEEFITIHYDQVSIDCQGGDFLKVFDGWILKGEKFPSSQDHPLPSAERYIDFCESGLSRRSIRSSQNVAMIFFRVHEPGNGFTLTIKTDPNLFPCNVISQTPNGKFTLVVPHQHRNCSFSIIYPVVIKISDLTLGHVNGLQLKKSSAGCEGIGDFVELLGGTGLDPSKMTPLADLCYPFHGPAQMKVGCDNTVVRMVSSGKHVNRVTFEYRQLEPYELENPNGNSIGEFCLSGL
Active and inactive are the calls of the source.
Hi! Could you answer with just one of these? yes (active), no (inactive)

Cc1ccc(C(=O)OCC(=O)c2cc(C)n(CC3CCCO3)c2C)cc1 (centres undefined) = no
COc1ccc(NC(=O)NC(C)c2ccc3c(c2)OCO3)c(OC)c1 (centres undefined) = no
Cc1nnc(SCC(=O)N(C)Cc2ccccc2)nc1O = no

Prompt: GET /call?item= CCN1C(=O)/C(=C\C=C\c2ccccc2[N+](=O)[O-])SC1=S returns the recorded outcome of this test.
Completion: no

Prompt: What classification did COc1ccc2nc3ccccc3[n+]([O-])c2c1 end up with in this test?
Completion: yes

Prompt: Check the results log: what was the call for Oc1cc(C(F)(F)F)nc2ccc(OC(F)(F)F)cc12 ?
Completion: yes

Prompt: Please let me know the test result on file for CCOc1ccc(S(=O)(=O)N2CCN(C(=O)c3ccncc3)CC2)cc1 .
Completion: no

Prompt: For this molecule, state the assay outcome: CN(C)c1ncc(S(=O)(=O)c2ccc(Cl)cc2)c(-c2ccc(Cl)cc2Cl)n1
Completion: no

Prompt: Recorded test call requested for CC[C@@H]1CCCCc2ccccc2[C@H](C(=O)C[C@H](O)CC(C)=O)OC1=O
Completion: no

---

Listing of entries alongside the reported IC50.
target: Large T antigen (Simian virus 40, UniProt P03070); format: functional, Betapolyomavirus macacae;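 further: Confirmatory-stage PubChem screen for compounds that inhibit SV40 T antigen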
Sequence (P03070 whole entry): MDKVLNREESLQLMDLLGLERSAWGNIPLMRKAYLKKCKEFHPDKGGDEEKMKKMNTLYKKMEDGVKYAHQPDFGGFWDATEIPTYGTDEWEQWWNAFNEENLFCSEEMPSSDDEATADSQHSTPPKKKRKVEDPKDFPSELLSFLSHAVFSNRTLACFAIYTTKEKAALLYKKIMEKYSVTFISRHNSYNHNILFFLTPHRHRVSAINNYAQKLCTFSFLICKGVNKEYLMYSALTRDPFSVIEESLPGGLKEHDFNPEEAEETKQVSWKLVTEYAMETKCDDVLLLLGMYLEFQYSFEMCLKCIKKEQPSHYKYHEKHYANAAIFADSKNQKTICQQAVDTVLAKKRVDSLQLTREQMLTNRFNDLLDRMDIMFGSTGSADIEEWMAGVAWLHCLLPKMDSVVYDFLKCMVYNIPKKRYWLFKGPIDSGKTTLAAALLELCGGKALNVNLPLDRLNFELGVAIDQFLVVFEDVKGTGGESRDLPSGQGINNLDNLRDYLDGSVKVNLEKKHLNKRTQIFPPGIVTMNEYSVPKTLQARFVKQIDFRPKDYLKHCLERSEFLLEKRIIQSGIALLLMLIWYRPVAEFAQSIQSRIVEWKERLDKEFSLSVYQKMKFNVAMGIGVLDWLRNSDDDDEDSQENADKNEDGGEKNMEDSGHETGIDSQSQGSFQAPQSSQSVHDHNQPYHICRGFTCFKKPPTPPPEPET
Activity calls are given as the source filed them.

// worked examples, IC50 included
N#Cc1c(-c2ccco2)c2c([nH]c1=S)CCCC2 = 37.7 µM (active)
COc1cc(/C=N\NC(=O)c2ccc(Cn3nc([N+](=O)[O-])c(Cl)c3C)o2)ccc1O = 32.7 µM (active)
O=C1NC(=O)N(c2ccccc2)C(=O)/C1=C\C=C\c1ccccc1 = 95.6 µM (active)
COc1ccc(N2CCC(CNC(=O)Nc3ccccc3)C2)cc1 (stereo not given) = 10.6 µM (active)
Nc1nc2ccc(S(=O)(=O)N3CCCCC3)cc2s1 = 8.51 µM (active)
Cc1cccc(N2CCN(C(=O)Cn3sc4nc(C)cc(C)c4c3=O)CC2C)c1 (stereo not given) = 18.1 µM (active)
N#C/C(=C\c1ccccc1OCc1ccc(C(=O)O)cc1)C(=O)Nc1ccc(O)cc1 = 11.5 µM (active)
O=S(=O)(c1ccc(NC(=S)N/N=C/c2ccc(O)c(O)c2)cc1)N1CCOCC1 = 38.4 µM (active)
COc1cc(OC)c(-c2c3cc(O)c(=O)cc-3oc3cc(O)c(O)cc23)cc1OC = 1.73 µM (active)

Briefly, IC50 measured for COc1cc(/C=N/N(C)c2ccccc2)ccc1O : 8.47 µM (active)

---

molecular target: Calpain-2 catalytic subunit (Sus scrofa, UniProt P43367); test: pig calpain II inhibitor potency, dose response, biochemical, fluorogenic peptide substrate (AID 1420); format: functional
Sequence (P43367 whole entry): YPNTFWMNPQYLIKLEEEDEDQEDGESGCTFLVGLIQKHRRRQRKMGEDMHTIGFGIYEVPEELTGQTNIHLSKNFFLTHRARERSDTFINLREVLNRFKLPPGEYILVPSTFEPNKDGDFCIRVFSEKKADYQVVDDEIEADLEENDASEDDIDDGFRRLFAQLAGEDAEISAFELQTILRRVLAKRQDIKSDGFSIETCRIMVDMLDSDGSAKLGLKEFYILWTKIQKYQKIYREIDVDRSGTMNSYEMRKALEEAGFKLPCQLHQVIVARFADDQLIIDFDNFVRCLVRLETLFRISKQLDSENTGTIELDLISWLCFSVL
observationType: IC50

Memo: COc1cccc(O)c1CN1CCCC(C(=O)c2cccc(C(F)(F)F)c2)C1 (configuration not stated) , reported IC50: 11.5 µM (not active)

Recorded result, Cc1cc(/C=N/NC(=O)C(=O)NCc2ccccn2)c(C)n1-c1cccc(Br)c1 , IC50: < 0.4 µM (not active)

Summary for this molecule, O=c1c2ccccc2nc(SCc2cn3ccsc3n2)n1-c1ccccc1F : IC50 is < 0.4 µM (not active)
